- TARGET OR TEST SYSTEM: Haspin kinase (Homo sapiens (Human))
- Sequence (Q8TF76 484-798): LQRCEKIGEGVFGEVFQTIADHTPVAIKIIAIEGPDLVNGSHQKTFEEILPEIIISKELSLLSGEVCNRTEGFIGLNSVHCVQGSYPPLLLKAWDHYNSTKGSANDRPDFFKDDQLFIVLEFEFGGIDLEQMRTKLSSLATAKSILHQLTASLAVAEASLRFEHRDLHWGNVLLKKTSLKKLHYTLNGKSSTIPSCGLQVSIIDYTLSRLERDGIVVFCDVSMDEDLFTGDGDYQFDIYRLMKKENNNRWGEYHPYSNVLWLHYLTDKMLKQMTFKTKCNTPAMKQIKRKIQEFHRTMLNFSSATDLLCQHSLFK
pIC50: −log10 of the molar value.
So basically: pIC50 at 6 or higher? That is Y. Lower than 6? That is N.

{"QUERY SMILES": "O=C(O)c1cc2c([nH]1)-c1ccncc1OC21CCN(CC(F)(F)F)CC1", "ANSWER LABEL": "N"}
{"QUERY SMILES": "COc1ccccc1-c1c(C(N)=O)[nH]c2c1C(C)(C)Oc1cnccc1-2", "ANSWER LABEL": "N"}
{"QUERY SMILES": "O=C(O)c1cc2c([nH]1)-c1ccncc1OC21CCN(C2CC2)CC1", "ANSWER LABEL": "N"}
{"QUERY SMILES": "CC1(C)Oc2cnccc2-c2[nH]c(C(N)=O)c(C3=CCOCC3)c21", "ANSWER LABEL": "Y"}
{"QUERY SMILES": "CC1(C)Oc2cnccc2-c2[nH]c(C(N)=O)c(Cl)c21", "ANSWER LABEL": "Y"}
{"QUERY SMILES": "Cn1c(C(=O)O)cc2c1-c1ccncc1OC2(C)C", "ANSWER LABEL": "Y"}
{"QUERY SMILES": "CCn1c(C(N)=O)c(-c2cccc(OC)c2)c2c1-c1ccncc1OC2(C)C", "ANSWER LABEL": "Y"}
{"QUERY SMILES": "NC(=O)c1cc2c(n1CCF)-c1ccncc1OC21CCC1", "ANSWER LABEL": "Y"}

Could you now look at the following compound, please?
Q: Say whether "COCCn1c(C(N)=O)cc2c1-c1ccncc1OC21CCOCC1" shows pIC50 of 6 or more.
Ans: Y

====

Reported values of pIC50 for individual entries
- TARGET OR TEST SYSTEM: CDK8/Cyclin C (Homo sapiens (Human), UniProt P49336)
- Sequence (P49336 whole entry): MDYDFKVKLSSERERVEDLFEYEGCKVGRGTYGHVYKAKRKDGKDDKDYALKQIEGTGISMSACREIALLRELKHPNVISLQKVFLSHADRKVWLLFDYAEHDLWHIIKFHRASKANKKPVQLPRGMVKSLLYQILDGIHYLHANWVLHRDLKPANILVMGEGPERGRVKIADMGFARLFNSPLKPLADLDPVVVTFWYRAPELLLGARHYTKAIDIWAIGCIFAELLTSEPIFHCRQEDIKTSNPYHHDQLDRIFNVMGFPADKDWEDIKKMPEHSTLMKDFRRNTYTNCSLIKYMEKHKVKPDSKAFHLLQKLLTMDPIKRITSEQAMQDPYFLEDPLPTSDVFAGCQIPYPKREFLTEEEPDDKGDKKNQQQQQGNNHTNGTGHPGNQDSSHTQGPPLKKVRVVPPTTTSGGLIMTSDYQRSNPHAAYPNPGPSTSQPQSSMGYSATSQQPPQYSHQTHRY
- Sequence (P24863 whole entry partner): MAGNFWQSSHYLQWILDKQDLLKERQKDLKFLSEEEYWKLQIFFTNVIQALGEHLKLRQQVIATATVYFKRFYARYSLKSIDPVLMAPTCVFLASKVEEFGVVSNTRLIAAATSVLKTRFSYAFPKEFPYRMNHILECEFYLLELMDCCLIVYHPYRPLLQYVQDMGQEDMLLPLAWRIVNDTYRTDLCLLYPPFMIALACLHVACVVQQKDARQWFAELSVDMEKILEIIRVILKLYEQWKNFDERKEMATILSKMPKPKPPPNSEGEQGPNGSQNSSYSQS
- ASSAY TEXT: CDK8/Cyclin C binding assay (LanthaScreen Eu-Kinase Binding Assay)
- TEST SETTINGS: binding assay
Keep it numeric: pIC50 is minus log10 of the concentration in mol/L.

{"COMPOUND": "CCn1c(C(N)=O)cc2c1-c1ccncc1O[C@H]2C1CCCCC1 (single isomer, unassigned)", "VALUE": 9.39}
{"COMPOUND": "Cn1c(C(N)=O)cc2c1-c1ccncc1OC21CCC1", "VALUE": 9.33}

Now examine the next entry.
// "CCN1CCC2(CC1)Oc1cnccc1-c1[nH]c(C(N)=O)cc12" : pIC50 value = 6.71

====

// values below are reported pIC50
- TARGET OR TEST SYSTEM: CDK19/Cyclin C (Homo sapiens (Human))
- ASSAY TEXT: CDK19/Cyclin C binding assay (LanthaScreen Eu-Kinase Binding Assay)
- TEST SETTINGS: read-out: CDK19-CYCC IC50
As a rule, pIC50 stands for the negative log10 of the concentration, concentration in M.

Solved cases (3 shown):
{"COMPOUND": "NC(=O)c1cc2c([nH]1)-c1ccncc1OC2C1CCCCC1 (stereo not drawn)", "VALUE": 7.33}
{"COMPOUND": "NC(=O)c1cc2c([nH]1)-c1ccncc1OC21CCOCC1", "VALUE": 6.68}
{"COMPOUND": "CCn1c(C(N)=O)cc2c1-c1ccncc1O[C@@H]2C1CCCCC1 (single isomer, unassigned)", "VALUE": 8.85}

Item: "CC1(C)Oc2cnccc2-c2[nH]c(C(N)=O)c(-c3ccccc3)c21" | pIC50: 6.97

Reported pIC50 for "CCn1c(C(N)=O)cc2c1-c1ccncc1OC21CCN(CC(F)(F)F)CC1" was 8.50

// sample "CC1(C)Oc2cnccc2-c2[nH]c(C(N)=O)c(Cl)c21" , its pIC50 was 7.78

Looking up "NC(=O)c1cc2c(n1CCF)-c1ccncc1OC21CCC1" , I found its pIC50 recorded as 9.08

"CNC(=O)c1cc2c([nH]1)-c1ccncc1OC2(C)C" has a reported pIC50 of 6.49

The compound listed as "NC(=O)c1cc2c([nH]1)-c1ccncc1OC21CCN(CCc2ccccc2)CC1" has a reported pIC50 of 6.23

====

- TARGET OR TEST SYSTEM: CDK8/Cyclin C (Homo sapiens (Human))
- ASSAY TEXT: CDK8/Cyclin C binding assay (LanthaScreen Eu-Kinase Binding Assay)
- TEST SETTINGS: binding assay
- Protocol: The enzyme has been purchase from Invitrogen (PV4402) as a dimer of full-length His-tagged recombinant human proteins. Assays were performed in 384-well plates. The final read out was generated using an EnVision plate reader (Perkin-Elmer).
Quick list: pIC50 per entry.
Convention used: pIC50 is expressed as -log10 of the molar concentration.

{"COMPOUND": "O=C(O)c1cc2c([nH]1)-c1ccncc1OC21CCN(CC(F)(F)F)CC1", "TARGET OR TEST SYSTEM": "CDK8/Cyclin C (Homo sapiens (Human))", "VALUE": 6.19}
{"COMPOUND": "NC(=O)c1cc2c([nH]1)-c1ccncc1OC21CCN(C2CC2)CC1", "TARGET OR TEST SYSTEM": "CDK8/Cyclin C (Homo sapiens (Human))", "VALUE": 5.24}
{"COMPOUND": "CC1(C)Oc2cnccc2-c2[nH]c(C(N)=O)c(-c3ccc4[nH]ncc4c3)c21", "TARGET OR TEST SYSTEM": "CDK8/Cyclin C (Homo sapiens (Human))", "VALUE": 5.00}
{"COMPOUND": "CC(C)n1c(C(N)=O)cc2c1-c1ccncc1OC2(C)C", "TARGET OR TEST SYSTEM": "CDK8/Cyclin C (Homo sapiens (Human))", "VALUE": 5.23}
{"COMPOUND": "NC(=O)c1cc2c([nH]1)-c1ccncc1O[C@H]2C1CCCCC1 (single isomer, unassigned)", "TARGET OR TEST SYSTEM": "CDK8/Cyclin C (Homo sapiens (Human))", "VALUE": 8.07}

Entry "CC1(C)Oc2cnccc2-c2[nH]c(C(=O)O)cc21" — recorded pIC50 = 6.84

"NC(=O)c1cc2c([nH]1)-c1ccncc1OC21CCC1" yielded pIC50 of 8.71

Quick note, pIC50 for "CCn1c(C(N)=O)c(-c2ccccc2C(F)(F)F)c2c1-c1ccncc1OC2(C)C" landed at 7.84

====

- TARGET OR TEST SYSTEM: CDK19/Cyclin C (Homo sapiens (Human), UniProt Q9BWU1)
- Sequence (Q9BWU1 whole entry, one chain of several): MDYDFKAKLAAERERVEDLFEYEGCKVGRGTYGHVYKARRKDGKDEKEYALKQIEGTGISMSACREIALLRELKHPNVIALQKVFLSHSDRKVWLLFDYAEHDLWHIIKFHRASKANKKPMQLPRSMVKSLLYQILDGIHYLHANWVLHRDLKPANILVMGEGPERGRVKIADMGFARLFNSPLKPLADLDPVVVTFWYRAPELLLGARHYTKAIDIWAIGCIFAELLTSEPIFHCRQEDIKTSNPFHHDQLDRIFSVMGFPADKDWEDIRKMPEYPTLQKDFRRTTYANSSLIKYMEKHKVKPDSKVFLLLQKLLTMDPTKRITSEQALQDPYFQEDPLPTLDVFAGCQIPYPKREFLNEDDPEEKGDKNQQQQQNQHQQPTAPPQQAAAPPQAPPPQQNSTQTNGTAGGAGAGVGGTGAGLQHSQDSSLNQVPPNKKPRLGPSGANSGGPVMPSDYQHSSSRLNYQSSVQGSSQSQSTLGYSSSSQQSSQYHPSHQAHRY
- ASSAY TEXT: CDK19/Cyclin C binding assay (LanthaScreen Eu-Kinase Binding Assay)
- TEST SETTINGS: read-out: CDK19-CYCC IC50
pIC50: −log10 of the molar value.
Class membership depends on pIC50 alone; the intervals are zone 1: < 7; zone 2: ≥ 7 and < 8; zone 3: ≥ 8

{"COMPOUND": "COCCn1c(C(N)=O)cc2c1-c1ccncc1OC21CCOCC1 [Example 87]", "TARGET OR TEST SYSTEM": "CDK19/Cyclin C (Homo sapiens (Human), UniProt Q9BWU1)", "ANSWER LABEL": "zone 2"}
{"COMPOUND": "O=C(O)c1cc2c([nH]1)-c1ccncc1OC21CCCCC1 [Example 14]", "TARGET OR TEST SYSTEM": "CDK19/Cyclin C (Homo sapiens (Human), UniProt Q9BWU1)", "ANSWER LABEL": "zone 3"}
{"COMPOUND": "NC(=O)c1cc2c([nH]1)-c1ccncc1OC21CCC1 [Example 15]", "TARGET OR TEST SYSTEM": "CDK19/Cyclin C (Homo sapiens (Human), UniProt Q9BWU1)", "ANSWER LABEL": "zone 3"}
{"COMPOUND": "CC1(C)Oc2cnccc2-c2[nH]c(C(=O)O)c(-c3ccc(S(N)(=O)=O)cc3)c21 [Example 30]", "TARGET OR TEST SYSTEM": "CDK19/Cyclin C (Homo sapiens (Human), UniProt Q9BWU1)", "ANSWER LABEL": "zone 2"}
{"COMPOUND": "COc1ccc(-c2c(C(N)=O)[nH]c3c2C(C)(C)Oc2cnccc2-3)cc1 [Example 51]", "TARGET OR TEST SYSTEM": "CDK19/Cyclin C (Homo sapiens (Human), UniProt Q9BWU1)", "ANSWER LABEL": "zone 1"}
{"COMPOUND": "CC1(C)Oc2cncc(Cl)c2-c2[nH]c(C(=O)O)cc21 [Example 35]", "TARGET OR TEST SYSTEM": "CDK19/Cyclin C (Homo sapiens (Human), UniProt Q9BWU1)", "ANSWER LABEL": "zone 2"}
{"COMPOUND": "CCn1c(C(N)=O)cc2c1-c1ccncc1OC21CCC1 [Example 66]", "TARGET OR TEST SYSTEM": "CDK19/Cyclin C (Homo sapiens (Human), UniProt Q9BWU1)", "ANSWER LABEL": "zone 3"}
{"COMPOUND": "CC1(C)Oc2cnccc2-c2[nH]c(C(=O)O)c(Br)c21 [Example 29]", "TARGET OR TEST SYSTEM": "CDK19/Cyclin C (Homo sapiens (Human), UniProt Q9BWU1)", "ANSWER LABEL": "zone 1"}

Now look at this one.
Q: Classify this compound: CC1Oc2cnccc2-c2[nH]c(C(N)=O)cc21 (stereo not drawn) [Example 58]
Ans: zone 2

Hello, the source for this data is patent US10208056B2, in case you need it.
